Tested on: RXF 393
Assay: NCI tumour cell line growth inhibition, 48 h
Activity calls are given as the source filed them. No stated cut-off is given here; in the data, active = GI50 up to about 1.1 µM and inactive = higher.
readout: GI50

{"compound": "CC(C)(C)OC(=O)N1C(C2=COc3ccccc3O2)=COc2ccccc21", "measurementTarget": "RXF 393", "readout": "GI50", "recordedMeasurement": "5.18 µM (inactive)"}
{"compound": "COC(=O)c1ccc(Cl)cc1NC(=O)C1CCCCC1", "measurementTarget": "RXF 393", "readout": "GI50", "recordedMeasurement": "20.3 µM (inactive)"}
{"compound": "Cc1[nH]c2ccccc2c1C1CC(=O)NC1=O (stereo unspecified)", "measurementTarget": "RXF 393", "readout": "GI50", "recordedMeasurement": "> 100 µM (inactive)"}
{"compound": "N#Cc1c(-c2ccccc2)c(C=O)c(=O)n2c1[nH]c1ccccc12", "measurementTarget": "RXF 393", "readout": "GI50", "recordedMeasurement": "42.5 µM (inactive)"}
{"compound": "CN(C)Cc1cc(/N=N/c2ccccc2)cc(CN(C)C)c1O", "measurementTarget": "RXF 393", "readout": "GI50", "recordedMeasurement": "44.7 µM (inactive)"}
{"compound": "COC(=O)CC1C2(C)C3=C(C)C(c4ccoc4)CC3OC2C2OC(=O)C3(C)C=CC(=O)C1(C)C23 (stereo unspecified)", "measurementTarget": "RXF 393", "readout": "GI50", "recordedMeasurement": "1.3 µM (inactive)"}

---

System: LOX IMVI
Assay: NCI tumour cell line growth inhibition, 48 h
Active and inactive are the calls of the source. No stated cut-off is given here; in the data, active = GI50 up to about 1.1 µM and inactive = higher. Square brackets hold non-standard residues; d marks the D form. Peptide text beside a SMILES is read from it. * marks the point of attachment. ξ: configuration not given here. NMeY = CN[C@@H](Cc1ccc(O)cc1)C(=O)O; Cbz = O=C(OCc1ccccc1)*; ξA = CC(N)C(=O)O
Outcome codes: y = active, n = inactive

{"compound": "S=C1c2ccc(Cl)cc2-n2cnnc2C2CSCN12 (stereo not drawn)", "class": "n"}
{"compound": "COc1ccc(OC)c(/N=C/c2cc(OC)c(OC)c(OC)c2)c1", "class": "n"}
{"compound": "C=C1C(=O)O[C@H]2C1C[C@@H](OC(C)=O)/C(C)=C/CC[C@@]1(C)O[C@H]21 (stereo partly drawn)", "class": "y"}
{"compound": "CCNC(=O)C(O)C1(O)CCC2[C@@H]3CCC4=CC(=O)C=C[C@]4(C)C3[C@@H](O)C[C@@]21C (stereo partly drawn)", "class": "n"}
{"compound": "O=C1Sc2sc(=S)sc2SC1c1ccccc1 (stereo not drawn)", "class": "n"}
{"compound": "O=c1[nH]c2ccc(C(F)(F)F)cc2nc1C(F)(F)F", "class": "n"}
{"compound": "COc1ccc(C[C@@H](C(=O)N[C@@H](C)C(N)=O)N(C)C(=O)[C@@H]2CCCN2C(=O)[C@H](CC(C)C)NC(=O)C(C)NC(=O)OCc2ccccc2)cc1 (stereo partly drawn) (Cbz-[ξA]LP[NMeY](Me)A-NH2)", "class": "n"}
{"compound": "COC(=O)CNC(=O)/C=C/[C@H](O[Si](C)(C)C(C)(C)C)[C@H](/C=C/C(=O)NCC(=O)OC)O[Si](C)(C)C(C)(C)C", "class": "n"}

Where these numbers come from: ChEMBL document CHEMBL1201862
